# ASSAY_PROTOCOL: in vivo
# Set-up: species or system Sprague-Dawley (SD) rats
# DETAILS: Sprague-Dawley, plasma; 4 h after oral CNP, rat
The reader will find reported log10(concentration at 4 h) values listed item by item below.
MEASURED_ENDPOINT: log10(concentration at 4 h) (log10 of the value in ng/mL)

COMPOUND	log10(concentration at 4 h)
CC(C)=CCC[C@](C)(O[C@@H]1O[C@H](CO)[C@@H](O)[C@H](O)[C@H]1O)[C@H]1CC[C@]2(C)[C@@H]1[C@H](O)C[C@@H]1[C@@]3(C)CC[C@H](O[C@@H]4O[C@H](CO)[C@@H](O)[C@H](O)[C@H]4O[C@@H]4O[C@H](CO)[C@@H](O)[C@H](O)[C@H]4O)C(C)(C)[C@@H]3CC[C@]12C [GRd, ginsenoside Rd]	1.40
CC(C)=CCC[C@](C)(O[C@@H]1O[C@H](CO[C@@H]2O[C@H](CO)[C@@H](O)[C@H](O)[C@H]2O)[C@@H](O)[C@H](O)[C@H]1O)[C@H]1CC[C@]2(C)[C@@H]1[C@H](O)C[C@@H]1[C@@]3(C)CC[C@H](O[C@@H]4O[C@H](CO)[C@@H](O)[C@H](O)[C@H]4O[C@@H]4O[C@H](CO)[C@@H](O)[C@H](O)[C@H]4O)C(C)(C)[C@@H]3CC[C@]12C [GRb1, ginsenoside Rb1]	1.92
CC(C)=CCC[C@](C)(O[C@@H]1O[C@H](CO)[C@@H](O)[C@H](O)[C@H]1O)[C@H]1CC[C@]2(C)[C@@H]1[C@H](O)C[C@@H]1[C@@]3(C)CC[C@H](O)C(C)(C)[C@@H]3[C@@H](O[C@@H]3O[C@H](CO)[C@@H](O)[C@H](O)[C@H]3O[C@@H]3OC[C@@H](O)[C@H](O)[C@H]3O)C[C@]12C [NGR1, notoginsenoside R1]	-0.42
CC(C)=CCC[C@](C)(O[C@@H]1O[C@H](CO)[C@@H](O)[C@H](O)[C@H]1O)[C@H]1CC[C@]2(C)[C@@H]1[C@H](O)C[C@@H]1[C@@]3(C)CC[C@H](O)C(C)(C)[C@@H]3[C@@H](O[C@@H]3O[C@H](CO)[C@@H](O)[C@H](O)[C@H]3O)C[C@]12C [GRg1, ginsenoside Rg1]	-0.33
CC(C)=CCC[C@](C)(O[C@@H]1O[C@H](CO)[C@@H](O)[C@H](O)[C@H]1O)[C@H]1CC[C@]2(C)[C@@H]1[C@H](O)C[C@@H]1[C@@]3(C)CC[C@H](O)C(C)(C)[C@@H]3[C@@H](O[C@@H]3O[C@H](CO)[C@@H](O)[C@H](O)[C@H]3O[C@@H]3O[C@@H](C)[C@H](O)[C@@H](O)[C@H]3O)C[C@]12C [GRe, ginsenoside Re]	-0.55
